Molecular target: PC-BSA
Sequence (P02769 25-607 limits assumed, form in doubt): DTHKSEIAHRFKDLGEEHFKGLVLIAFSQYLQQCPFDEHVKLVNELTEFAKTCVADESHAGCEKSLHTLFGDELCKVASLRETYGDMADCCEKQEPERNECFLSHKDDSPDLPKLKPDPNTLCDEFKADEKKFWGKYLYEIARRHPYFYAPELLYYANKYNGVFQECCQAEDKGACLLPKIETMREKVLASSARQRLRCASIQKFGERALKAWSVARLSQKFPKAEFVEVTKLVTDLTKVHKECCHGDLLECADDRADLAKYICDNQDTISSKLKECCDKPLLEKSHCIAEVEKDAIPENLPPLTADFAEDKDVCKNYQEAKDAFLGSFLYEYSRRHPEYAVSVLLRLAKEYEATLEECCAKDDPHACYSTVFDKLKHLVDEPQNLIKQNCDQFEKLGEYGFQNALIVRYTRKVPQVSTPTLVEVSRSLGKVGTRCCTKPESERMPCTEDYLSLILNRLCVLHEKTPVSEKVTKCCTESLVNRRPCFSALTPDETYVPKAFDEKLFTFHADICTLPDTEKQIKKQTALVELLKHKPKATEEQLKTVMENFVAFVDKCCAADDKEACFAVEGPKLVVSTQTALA
Assay: ELISA (DELFIA TRF), PC-BSA coated, titrated IgG1
Category | rule: reported EC50 within range, see small value: < 0.3 nM; mid value: ≥ 0.3 nM and < 0.6 nM; large value: ≥ 0.6 nM

Record excerpt, results attached:
binder	labelValue
PcOxP_DB01_E05 (human IgG1) (antibody, V domains shown) VH: EVQLLESGGGLVQPGGSLRLSCAASGFTFSDYYMEWVRQAPGKGLEWVAASRNKANDYTTEYADSVKGRFTISRDNSKNTLYLQMNSLRAEDTAVYYCARDYYGSSYWYFDVWGQGTLVTVSS VL: DIQMTQSPSSLSASVGDRVTITCTASESLYSSKHKVNYLAWYQQKPGKAPKLLIYGASNRYIGVPSRFSGSGSGTDFTLTISSLQPEDFATYYCAQFYQYPLTFGGGTKVEIK	mid value
PcOxP_DB01_G05 (human IgG1) (antibody, V domains shown) VH: EVQLLESGGGLVQPGGSLRLSCAASGFTFSSYYMEWVRQAPGKGLEWVAASRNKANEYTTEYADSVKGRFTISRDNSKNTLYLQMNSLRAEDTAVYYCARDYYGSSYWYFDVWGQGTLVTVSS VL: DIVMTQSPDSLAVSLGERATINCTASESLYSSKHKVHYLAWYQQKPGQPPKLLIYGASNRYIGVPDRFSGSGSGTDFTLTISSLQAEDVAVYYCANFYSYPLTFGGGTKVEIK	small value
PcOxP_DB01_F01 (human IgG1) (antibody, V domains shown) VH: EVQLLESGGGLVQPGGSLRLSCAASGFPFSDFYMEWVRQAPGKGLEWVAASRNKANDYTTEYADSVKGRFTISRDNSKNTLYLQMNSLRAEDTAVYYCARDYYGSPYWYFDVWGQGTLVTVSS VL: DIVMTQSPDSLAVSLGERATINCTASESVYSSKNKKHYLAWYQQKPGQPPKLLIYGASNRYIGVPDRFSGSGSGTDFTLTISSLQAEDVAVYYCAQFYTYPLTFGGGTKVEIK	large value
PcOxP_DB03_A09 (human IgG1) (antibody, V domains shown) VH: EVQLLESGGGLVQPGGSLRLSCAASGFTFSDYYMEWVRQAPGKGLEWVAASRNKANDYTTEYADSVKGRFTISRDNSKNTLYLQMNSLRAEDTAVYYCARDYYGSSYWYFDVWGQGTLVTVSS VL: DIQMTQSPSSLSASVGDRVTITCTASESLYSSKHKVHYLAWYQQKPGKAPKLLIYGASNRGIGVPSRFSGSGSGTDFTLTISSLQPEDFATYYCAQFYSYPLTFGGGTKVEIK	large value

Prompt: Which category does the recorded EC50 put PcOxP_DB02_C09 (human IgG1) (antibody, V domains shown) VH: EVQLLESGGGLVQPGGSLRLSCAASGFTFSDAYMEWVRQAPGKGLEWVAASRNKANDYTTEYADSVKGRFTISRDNSKNTLYLQMNSLRAEDTAVYYCARDYYGSSYWYFDVWGQGTLVTVSS VL: DIQMTQSPSSLSASVGDRVTITCTASESLYSSKHKVHYLAWYQQKPGKAPKLLIYGAGNRYIGVPSRFSGSGSGTDFTLTISSLQPEDFATYYCAQFYFYPLTFGGGTKVEIK in?
Completion: mid value

Prompt: Next: PcOxP_DB03_G07 (human IgG1) (antibody, V domains shown) VH: EVQLLESGGGLVQPGGSLRLSCAASGFTFSDHYMEWVRQAPGKGLEWVAASRNKANDYTTEYADSVKGRFTISRDNSKNTLYLQMNSLRAEDTAVYYCARDYYGQSYWYFDVWGQGTLVTVSS VL: DIQMTQSPSSLSASVGDRVTITCTASESLYSSKHKVHYLAWYQQKPGKAPKLLIYGASNRYIGVPSRFSGSGSGTDFTLTISSLQPEDFATYYCAQFYSYPLTFGGGTKVEIK
Completion: large value

Prompt: Next: PcOxP_DB03_E01 (human IgG1) (antibody, V domains shown) VH: EVQLLESGGGLVQPGGSLRLSCAASGFTFSDYYMEWVRQAPGKGLEWVAASRNKANDYTVEYADSVKGRFTISRDNSKNTLYLQMNSLRAEDTAVYYCARDYYGSSYWYFDVWGQGTLVTVSS VL: DIQMTQSPSSLSASVGDRVTITCTASESLYSSKHKVHYLAWYQQKPGKAPKLLIYGTSNRYIGVPSRFSGSGSGTDFTLTISSLQPEDFATYYCAQFYEYPLTFGGGTKVEIK
Completion: large value

Prompt: Next: PcOxP_DB03_G11 (human IgG1) (antibody, V domains shown) VH: EVQLLESGGGLVQPGGSLRLSCAASGFTFSSYYMEWVRQAPGKGLEWVAASRNKANDYTTEYADSVKGRFTISRDNSKNTLYLQMNSLRAEDTAVYYCARDYYGSSYWYFDVWGQGTLVTVSS VL: DIVMTQSPDSLAVSLGERATINCKSSQSVLSSKHKKNYLAWYQQKPGQPPKLLIYGASNRYIGVPDRFSGSGSGTDFTLTISSLQAEDVAVYYCAQFYSYPLTFGGGTKVEIK
Completion: small value

Prompt: Next: PcOxP_DB03_G03 (human IgG1) (antibody, V domains shown) VH: EVQLLESGGGLVQPGGSLRLSCAASGFTSSDFYMEWVRQAPGKGLEWVAASRNKANDYTTEYADSVKGRFTISRDNSKNTLYLQMNSLRAEDTAVYYCARDYYGSSYWYFDVWGQGTLVTVSS VL: DIQMTQSPSSLSASVGDRVTITCTASQSISSSKHKVHYLAWYQQKPGKAPKLLIYGASNHYIGVPSRFSGSGSGTDFTLTISSLQPEDFATYYCAQFYSYPLTFGGGTKVEIK
Completion: small value
